# Test system: Ruminococcus gnavus DSM 108212
# Measurement Description: fold change of 2-Phenylethylamine concentration vs plate DMSO controls (fold change (ratio)); higher = more amine produced, active = hit call of the paper (significant change in both replicates, either direction);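 for the amine columns active = adjusted P below 0.05 in both replicates with a change the same way and a mean fold change under 0.8 or over 1.25; inactive = the rest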
# Test Conditions: incubation time: 27 h, anaerobic, 37 °C
Counter-ions that a name gives are not always drawn.
Outcome codes: Y for active, N for inactive

compound="C=C1c2c(Cl)ccc(O)c2C(O)=C2C(=O)[C@]3(O)C(O)=C(C(N)=O)C(=O)[C@@H](N(C)C)[C@@H]3[C@@H](O)[C@H]12.O=C(O)c1cc(S(=O)(=O)O)ccc1O [Meclocycline sulfosalicylate] (20 µM)" group_label=Y
compound="C[C@]12CC[C@@H]3c4ccc(OS(=O)(=O)O)cc4CC[C@H]3[C@@H]1CCC2=O [Estropipate piperazine salt] (20 µM)" group_label=N
compound="CN(C)CCCC1(c2ccc(F)cc2)OCc2cc(C#N)ccc21 (configuration not stated) [Citalopram hydrobromide] (20 µM)" group_label=N
compound="COc1ccccc1N1CCN(CC(O)COc2cccc3ccccc23)CC1 (configuration not stated) [Naftopidil dihydrochloride] (20 µM)" group_label=N
compound="C=CCOC(Cn1ccnc1)c1ccc(Cl)cc1Cl (configuration not stated) [Enilconazole] (20 µM)" group_label=Y
compound="CC(=O)N1CCN(c2ccc(OCC3COC(Cn4ccnc4)(c4ccc(Cl)cc4Cl)O3)cc2)CC1 (configuration not stated) [Ketoconazole] (20 µM)" group_label=N
compound="C[C@H]1COc2c(N3CCN(C)CC3)c(F)cc3c(=O)c(C(=O)O)cn1c23 [Levofloxacin] (20 µM)" group_label=N

src = the supplement of paper PMC12494721
